These entries and their values trace back to PubChem BioAssay (NCI).

- Tested on: T-47D breast
- EXPERIMENTAL_DETAILS: NCI tumour cell line growth inhibition, 48 h

{"columns": ["COMPOUND", "UNIT_SPEC", "RELATION_SIGN", "TGI"],
 "data": [
  ["O=C(C/C=C/c1ccccc1)c1ccccc1", "µM", "=", 42.7],
  ["COc1cc(/C=C/C(=O)c2c(C)nc3ccccc3c2C)ccc1OCCCN1CCN(C(=O)c2ccco2)CC1", "µM", "=", 15],
  ["COc1ccc2c(c1)C(=O)c1c-2c(Nc2cccc(C(C)=O)c2)nc2ccccc12", "µM", "=", 55.2],
  ["CC(C)CCCC(C)[C@H]1CC[C@H]2N=C(NCc3ccccc3)CCC[C@]12C (stereo not given in full)", "µM", "=", 8.01],
  ["O=C1O/C(=C\\c2ccc(O)cc2)C(c2ccc(O)c(Cl)c2)=C1Cl", "µM", ">", 100],
  ["O=C(O)Cc1cccc2c(=O)c3cccc([N+](=O)[O-])c3oc12", "µM", ">", 100],
  ["COC(=O)[C@]12CC[C@@H](C)[C@H](C)[C@@H]1C1=CC[C@@H]3[C@@]4(C)C(C=O)=C[C@@](C)(COC(=O)/C=C/c5ccccc5)[C@@H]4[C@H](O)C[C@@]3(C)[C@]1(C)CC2", "µM", "=", 84.1],
  ["CC1(C)C2CCC(O)(C2)C1N (stereo not given)", "µM", ">", 100],
  ["COC1C(O)C(C)OC(OC2CCC3(C)C(CCC4C3C(O)CC3(C)C(C5=CC(=O)OC5)CCC43O)C2)C1O (stereo not given)", "µM", "=", 2.59],
  ["CCCC(=O)NC(Nc1ccc(S(=O)(=O)Nc2ccc(OC)nn2)cc1)(C(F)(F)F)C(F)(F)F", "µM", ">", 100],
  ["CC(O)[C@@]1(c2ccccc2)CC2(CCN(C)CC2)O[C@H]1C (stereo not given in full)", "µM", "=", 98],
  ["Cn1c2ccccc2c2c(=O)n(CCCC(=O)OC(=NC3CCCCC3)NC3CCCCC3)c3c(-c4ccccc4)nnn3c21", "µM", ">", 100],
  ["c1ccc([P+](CCCCCC[P+](c2ccccc2)(c2ccccc2)c2ccccc2)(c2ccccc2)c2ccccc2)cc1", "µM", ">", 100],
  ["CSc1c(C#N)c(S)[nH]c(=O)c1C#N", "µM", ">", 100],
  ["COc1cc(/C=N/NC2=NCCCCN2)ccc1O", "µM", ">", 100]
]}

* * *

- System: NCI-H226 lung
- EXPERIMENTAL_DETAILS: NCI tumour cell line growth inhibition, 48 h
The following compounds are listed with their measured TGI values.

{"columns": ["COMPOUND", "TGI"],
 "data": [
  ["COc1cc2c[n+](C)c3c(c2cc1OC)Cc1cc2c(cc1-3)OCO2", "> 100 µM"],
  ["CCn1ccc(NS(=O)(=O)c2ccc(N)cc2)nc1=O", "> 100 µM"],
  ["C=CCN(N=O)C(=O)NCCCCC(NC(C)=O)C(=O)NCc1ccccc1 (centres undefined)", "> 100 µM"],
  ["C[CH2][Sn]([CH2]C)([O]C(=O)c1ccc(OC)c(OC)c1OC)[O]C(=O)c1ccc(OC)c(OC)c1OC", "46 µM"]
]}

* * *

- Tested on: CAKI-1 renal
- EXPERIMENTAL_DETAILS: NCI tumour cell line growth inhibition, 48 h

{"columns": ["STRUCTURE_SMILES_STRING", "TGI"],
 "data": [
  ["O=c1cc(-c2ccccc2)[nH]c2cc(Cl)ccc12", "11.4 µM"],
  ["CC(=O)/C(C=Nc1c(C)n(C)n(C)c1=O)=C(/O)c1ccccc1", "> 50 µM"],
  ["CSc1c(C#N)c(S)[nH]c(=O)c1C#N", "> 100 µM"],
  ["CN(C)c1ccc(/C=C/c2cc(-c3ccccc3)[n+](C)n2-c2ccccc2)cc1", "13 µM"],
  ["COc1ccc(/C=C2\\c3cc(OC)c(OC)c(OC)c3CC[C@@H]2O)cc1F", "> 100 µM"],
  ["CCn1ccc(NS(=O)(=O)c2ccc(N)cc2)nc1=O", "> 100 µM"]
]}

* * *

- System: HOP-62 NSCLC
- EXPERIMENTAL_DETAILS: NCI tumour cell line growth inhibition, 48 h
The following compounds are listed with their measured TGI values.

{"columns": ["STRUCTURE_SMILES_STRING", "TGI"],
 "data": [
  ["O=c1oc2ccc3ccccc3c2cc1-c1nc2ccc([N+](=O)[O-])cc2o1", "> 45.2 µM"],
  ["O=Nc1c(O)cc(Nc2cccnc2)c2ccccc12", "> 100 µM"],
  ["COc1cc2c[n+](C)c3c(c2cc1OC)Cc1cc2c(cc1-3)OCO2", "> 100 µM"]
]}

* * *

The following compounds are listed with their measured TGI values.
- System: MCF7 breast
- EXPERIMENTAL_DETAILS: NCI tumour cell line growth inhibition, 48 h

{"columns": ["COMPOUND", "TGI"],
 "data": [
  ["CC(O)[C@@]1(c2ccccc2)CC2(CCN(C)CC2)O[C@H]1C (stereo partly drawn)", "> 100 µM"],
  ["COC1CC(O[C@H]2CC[C@@]3(C)[C@@H](CC[C@]4(O)[C@@H]3CC[C@]3(C)[C@@H](C(C)=O)[C@H](OC(=O)CC(C)C)[C@@H](OC(=O)c5ccccc5)[C@@]34O)C2)OC(C)C1OC1CC(OC)C(OC2OC(C)C(O)C(OC)C2O)C(C)O1 (stereo partly drawn)", "> 25 µM"],
  ["CCOC(=O)C(CCc1ncnc2c1ncn2Cc1ccccc1)(CCc1ncnc2c1ncn2Cc1ccccc1)C(=O)OCC", "> 100 µM"],
  ["COC1/C=C/C(C)C(C(C)C(OC)C(C)CCC(=O)C(C)C(CC(=O)O)OC)OC(=O)/C=C/C=C(\\C)CC(OC)CC2=CC(=O)O[C@H](C2)C(C)C(OC)CC(OC)/C=C/C(C)C(OC)C1 (stereo partly drawn)", "> 4.35 µM"],
  ["CC[C@@]1(CCC(=O)NCCc2c[nH]c3ccccc23)CCC(=O)N2CCc3c([nH]c4ccccc34)[C@H]21", "> 100 µM"],
  ["CCCCCC[C@H](C)NC(=O)c1ccc(Nc2nc3ccccc3c3occc23)cc1", "> 100 µM"],
  ["Cn1c(=O)c(Cl)c(N=[N+]=[N-])c2ccccc21", "> 100 µM"],
  ["Cn1c(N=P(c2ccccc2)(c2ccccc2)c2ccccc2)c([N+](=O)[O-])c(=O)n(C)c1=O", "> 100 µM"]
]}

* * *

- System: RPMI-8226 leukemia
- EXPERIMENTAL_DETAILS: NCI tumour cell line growth inhibition, 48 h
The following molecules are listed with their measured GI50 values.

{"columns": ["MOLECULE", "GI50"],
 "data": [
  ["COc1cnc2c(c1)C(=O)c1c-2n(CCCN2CCNCC2)c(=O)c2cc([N+](=O)[O-])ccc12", "0.301 µM"],
  ["CN(C)c1ccc(N=C2C=CC(=O)c3ccccc32)cc1", "2.92 µM"],
  ["COc1ccc(OC)c(/C=C/c2nc(SCc3ccccc3)n(-c3ccc(Cl)cc3)n2)c1", "7.39 µM"],
  ["COc1ccc(/C=C2\\c3cc(OC)c(OC)c(OC)c3CC[C@@H]2O)cc1F", "1.82 µM"],
  ["N#CC1C(=O)NC(c2ccccc2[N+](=O)[O-])c2sc3c(F)cccc3c21 (stereo unspecified)", "5.67 µM"],
  ["C#Cc1cccc(NC(=O)c2ccc(NC(=O)CCl)cc2)c1", "14.7 µM"],
  ["Cn1c2ccccc2c2c(=O)n(CCCC(=O)OC(=NC3CCCCC3)NC3CCCCC3)c3c(-c4ccccc4)nnn3c21", "> 100 µM"],
  ["Nc1ncnc2c1ccn2[C@@H]1O[C@H]([C@H](O)c2ccc(Cl)c(F)c2)[C@@H](O)[C@H]1O", "> 100 µM"],
  ["CCCCCC[C@H](C)NC(=O)c1ccc(Nc2nc3ccccc3c3occc23)cc1", "4.03 µM"],
  ["Cc1ccc(S(=O)(=O)Nc2ccc(-c3cc(-c4cccc(F)c4)c(C#N)c(N)n3)cc2)cc1", "2.21 µM"],
  ["COc1cc2c(cc1C)NC(=O)/C2=C\\c1c[nH]c2ccccc12", "5.95 µM"]
]}

* * *

- Tested on: SNB-75 CNS
- EXPERIMENTAL_DETAILS: NCI tumour cell line growth inhibition, 48 h; in the data active = GI50 below about 0.43 µM; inactive = the rest
Classes used: yes (1) for active, no (0) for inactive

{"columns": ["MOLECULE", "CLASS"],
 "data": [
  ["CN1CCN(Cc2cc(NC(=O)c3cccc(C#Cc4cccc5[nH]nc(N)c45)c3)cc(C(F)(F)F)c2)CC1", "no (0)"],
  ["COCCn1cc(-c2csc(-c3c[nH]c4ccc(Br)cc34)n2)c2cccnc21", "no (0)"],
  ["Cc1nccc2c3ccc(OCc4cn(-c5ccc(Cl)cc5)nn4)cc3n(CC(C)C)c12", "no (0)"],
  ["COCc1c(-c2ccc(NC(=O)Nc3cc(C(F)(F)F)ccc3F)c(F)c2)c2c(N)ncnn2c1CN1CCOCC1", "no (0)"],
  ["O=C1C2C3C=CC(C2C(=O)N1CN1CCSCC1)C1C2C(=O)N(CN4CCSCC4)C(=O)C2C31 (centres undefined)", "no (0)"],
  ["COc1cccc(Nc2nccc(-c3cnn4ncccc34)n2)c1", "yes (1)"],
  ["COc1ccc(OC)c(/C=C/c2nc(SCc3ccccc3)n(-c3ccc(Cl)cc3)n2)c1", "no (0)"],
  ["O=[N+]([O-])c1ccc(Sc2ccncn2)c([N+](=O)[O-])c1", "no (0)"],
  ["COc1cc(/C=C/C(=O)c2c(C)nc3ccccc3c2C)ccc1OCCCN1CCN(C(=O)c2ccco2)CC1", "no (0)"]
]}
